# Test Target: PCSK9 (Homo sapiens)
# Construct: Biotinylated PCSK9 was obtained commercially; purchased
# Sequence (Q8NBP7 153-692): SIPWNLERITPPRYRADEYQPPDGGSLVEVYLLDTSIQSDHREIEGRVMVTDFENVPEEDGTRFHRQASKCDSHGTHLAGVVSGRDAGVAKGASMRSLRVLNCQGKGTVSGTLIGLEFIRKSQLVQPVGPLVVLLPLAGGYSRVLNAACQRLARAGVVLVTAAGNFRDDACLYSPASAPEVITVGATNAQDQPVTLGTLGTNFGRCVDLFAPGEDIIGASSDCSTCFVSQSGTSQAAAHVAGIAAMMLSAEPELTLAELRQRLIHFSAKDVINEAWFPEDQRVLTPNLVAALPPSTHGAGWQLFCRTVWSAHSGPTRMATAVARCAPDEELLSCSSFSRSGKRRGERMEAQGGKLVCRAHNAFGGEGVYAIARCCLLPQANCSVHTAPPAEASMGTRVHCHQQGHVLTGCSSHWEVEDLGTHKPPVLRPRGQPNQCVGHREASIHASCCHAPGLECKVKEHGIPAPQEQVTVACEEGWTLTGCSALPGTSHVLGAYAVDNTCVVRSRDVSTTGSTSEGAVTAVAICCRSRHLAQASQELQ
# Measurement Description: PCSK9 Alexa FRET Ultra TR-FRET assay (displacement of AlexaFluor647 tagged cyclic peptide)
# Type: binding
# Assay Context: Ki Ultra, 0.5 nM biotinylated PCSK9, 960 nM AF cyclic peptide; Ki calculated from IC50 and KD of AF peptide
Mark TRUE for Ki under 0.1 nM, FALSE if at or over.

Consider the worked cases shown below.
- Molecule Smiles: "COc1ccc(C[C@@H]2NC(=O)[C@H]([C@@H](C)O)NC(=O)[C@@H]3[C@@H]4CCN3C(=O)[C@@H]3Cc5cn(c6ccc(F)cc56)C/C=C/COc5cc(ccc5CNC(=O)CCC(=O)N[C@@H](C)C(=O)N[C@H](CN)C(=O)N[C@@H](Cc5cccc(c5)CNC(=O)CO4)C(=O)N3)CCNC(=O)[C@]3(C)CCCN3C2=O)cc1"
  Class Label: "FALSE"
- Molecule Smiles: "COc1ccc(C[C@@H]2NC(=O)[C@H]([C@@H](C)O)NC(=O)[C@@H]3[C@@H]4CCN3C(=O)[C@@H]3Cc5cn(c6ccc(F)cc56)C/C=C/CC[C@@H](NC(=O)CCC(=O)N[C@@H](C)C(=O)N[C@H](CNC(=O)CCCCC[N+](C)(C)C)C(=O)N[C@@H](Cc5cccc(c5)CNC(=O)CO4)C(=O)N3)c3ccc(cc3)CCNC(=O)[C@]3(C)CCCN3C2=O)cc1"
  Class Label: "TRUE"
- Molecule Smiles: "COc1ccc(C[C@@H]2NC(=O)[C@H]([C@@H](C)O)NC(=O)[C@@H]3[C@@H]4CCN3C(=O)[C@@H]3Cc5cn(c6ccc(F)cc56)CCCCOc5cc(cc(c5)CNC(=O)CCC(=O)N[C@@H](C)C(=O)N[C@H](CNC(=O)CCCCC[N+](C)(C)C)C(=O)N[C@@H](Cc5cccc(c5)CNC(=O)CO4)C(=O)N3)CCNC(=O)[C@]3(C)CCCN3C2=O)cc1"
  Class Label: "FALSE"
- Molecule Smiles: "COc1ccc(C[C@@H]2NC(=O)[C@H]([C@@H](C)O)NC(=O)[C@@H]3[C@@H]4CCN3C(=O)[C@@H]3Cc5cn(c6ccc(F)cc56)C/C=C/CCCN(Cc5ccc(cc5)CCNC(=O)[C@]5(C)CCCN5C2=O)C(=O)CCC(=O)N[C@@H](C)C(=O)N[C@H](CN)C(=O)N[C@@H](Cc2cccc(c2)CNC(=O)CO4)C(=O)N3)cc1"
  Class Label: "TRUE"
- Molecule Smiles: "COc1ccc(C[C@@H]2NC(=O)[C@H]([C@@H](C)O)NC(=O)[C@@H]3[C@@H]4CCN3C(=O)[C@@H]3Cc5cn(c6ccc(F)cc56)CCCCCCN(Cc5cccc(c5)CCNC(=O)[C@]5(C)CCCN5C2=O)C(=O)CCC(=O)N[C@@H](C)C(=O)N[C@H](CNC(=O)CCCCC[N+](C)(C)C)C(=O)N[C@@H](Cc2cccc(c2)CNC(=O)CO4)C(=O)N3)cc1"
  Class Label: "TRUE"

Consider "COc1ccc(C[C@@H]2NC(=O)[C@H]([C@@H](C)O)NC(=O)[C@@H]3[C@@H]4CCN3C(=O)[C@@H]3Cc5cn(c6ccc(F)cc56)CCCCOc5cc(ccc5CNC(=O)CCC(=O)N[C@@H](C)C(=O)N[C@H](CN)C(=O)N[C@@H](Cc5cccc(c5)CNC(=O)CO4)C(=O)N3)CCNC(=O)[C@]3(C)CCCN3C2=O)cc1" . Does its Ki lie strictly below 0.1 nM?
FALSE

Consider "COc1ccc(C[C@@H]2NC(=O)[C@H]([C@@H](C)O)NC(=O)[C@@H]3[C@@H]4CCN3C(=O)[C@@H]3Cc5cn(c6ccc(F)cc56)CCCCC[C@@H](NC(=O)CCC(=O)N[C@@H](C)C(=O)N[C@H](CNC(=O)CCCCC[N+](C)(C)C)C(=O)N[C@@H](Cc5cccc(c5)CNC(=O)CO4)C(=O)N3)c3ccc(cc3)CCNC(=O)[C@]3(C)CCCN3C2=O)cc1" . Does its Ki lie strictly below 0.1 nM?
TRUE

Consider "COc1ccc(C[C@@H]2NC(=O)[C@H]([C@@H](C)O)NC(=O)[C@@H]3[C@@H]4CCN3C(=O)[C@@H]3Cc5cn(c6ccc(F)cc56)CCCCCCN(Cc5ccc(cc5)CCNC(=O)[C@]5(C)CCCN5C2=O)C(=O)CCC(=O)N[C@@H](C)C(=O)N[C@H](CNC(=O)CNC(=O)CCCCC[N+](C)(C)C)C(=O)N[C@@H](Cc2cccc(c2)CNC(=O)CO4)C(=O)N3)cc1" . Does its Ki lie strictly below 0.1 nM?
TRUE

Consider "COc1ccc(C[C@@H]2NC(=O)[C@H]([C@@H](C)O)NC(=O)[C@@H]3[C@@H]4CCN3C(=O)[C@@H]3Cc5cn(c6ccccc56)CCCCCCN(Cc5ccc(cc5)CCNC(=O)[C@]5(C)CCCN5C2=O)C(=O)CCC(=O)N[C@@H](C)C(=O)N[C@H](CNC(=O)CCCCC[N+](C)(C)C)C(=O)N[C@@H](Cc2cccc(c2)CNC(=O)CO4)C(=O)N3)cc1" . Does its Ki lie strictly below 0.1 nM?
TRUE

Consider "COc1ccc(C[C@@H]2NC(=O)[C@H]([C@@H](C)O)NC(=O)[C@@H]3[C@@H]4CCN3C(=O)[C@@H]3Cc5cn(c6ccc(F)cc56)CCCCCCN(Cc5ccc(cc5)CCNC(=O)[C@]5(C)CCCN5C2=O)C(=O)CCCCCC(=O)N[C@H](CNC(=O)CCOCCOCC[N+](C)(C)C)C(=O)N[C@@H](Cc2cccc(c2)CNC(=O)CO4)C(=O)N3)cc1" . Does its Ki lie strictly below 0.1 nM?
TRUE

Consider "COc1ccc(C[C@@H]2NC(=O)[C@H](C)NC(=O)[C@@H]3[C@@H]4CCN3C(=O)[C@@H]3Cc5cn(c6ccc(F)cc56)CCCCCCN(Cc5ccc(cc5)CCNC(=O)[C@]5(C)CCCN5C2=O)C(=O)CCC(=O)N[C@@H](C)C(=O)N[C@H](CNC(=O)CCCCC[N+](C)(C)C)C(=O)N[C@@H](Cc2cccc(c2)CNC(=O)CO4)C(=O)N3)cc1" . Does its Ki lie strictly below 0.1 nM?
TRUE

Consider "COc1ccc(C[C@@H]2NC(=O)[C@H]([C@@H](C)O)NC(=O)[C@@H]3[C@@H]4CCN3C(=O)[C@@H]3Cc5cn(c6ccc(F)cc56)CCCCCCN(Cc5ccc(cc5)CCNC(=O)[C@]5(C)CCCN5C2=O)C(=O)CCCC(=O)N[C@H](CNC(=O)CCOCCOCC[N+](C)(C)C)C(=O)N[C@@H](Cc2cccc(c2)CNC(=O)CO4)C(=O)N3)cc1" . Does its Ki lie strictly below 0.1 nM?
FALSE
